Measured IC50, listed per entry.
- System: VZV strain Ellen
- assay_explanation: VZV antiviral (ELISA) assay
- Type: cell-based
- stated_conditions: Human alphaherpesvirus 3; VZV strain Ellen, HFF cells, ELISA; read-out: IC50 (ug/ml) VZV

Worked cases, answers included:
{"columns": ["compound", "IC50"],
 "data": [
  ["CC(NC(=S)Nc1ccc(NC(=O)c2ccccc2I)cc1)c1ccc(F)cc1 (centres unmarked)", "3.4 µg/mL"],
  ["C[C@@H](NC(=S)Nc1ccc(NC(=O)c2ccccc2F)cc1)c1ccccc1", "> 7.5 µg/mL"],
  ["COc1cccc(NC(=S)Nc2ccc(NC(=O)c3ccccc3F)cc2)c1", "> 10 µg/mL"],
  ["NC(=O)c1cccc(NC(=S)Nc2ccc(NC(=O)c3ccccc3F)cc2)c1", "> 10 µg/mL"],
  ["O=C(Nc1ccc(NC(=S)Nc2ccc(OCC(F)(F)F)cc2OCC(F)(F)F)cc1)c1ccccc1F", "> 10 µg/mL"]
]}

*Q* Can you look up IC50 on VZV strain Ellen for CC(NC(=S)Nc1ccc(NC(=O)c2ccccc2F)cc1)c1ccc(C(F)(F)F)cc1F (centres unmarked) ?
*A* > 7.5 µg/mL

*Q* Can you look up IC50 on VZV strain Ellen for CC(NC(=S)Nc1ccc(NC(=O)c2ccccc2F)cc1)c1ccc(C(F)(F)F)cc1 (centres unmarked) ?
*A* > 7.5 µg/mL

*Q* Can you look up IC50 on VZV strain Ellen for Cc1nc2cc(NC(=S)Nc3ccc(NC(=O)c4ccccc4F)cc3)ccc2[nH]1 ?
*A* > 10 µg/mL

* * *

- System: VZV strain Ellen
- assay_explanation: VZV antiviral (ELISA) assay
- Assay type: cell-based
- stated_conditions: Human alphaherpesvirus 3, HFF, read-out: IC50 (ug/ml) VZV, VZV strain Ellen, HFF cells, ELISA
parameter_measured: log10 of IC50 (log10 of the value in µg/mL)
Heads up, the numbers here are log10 of IC50 in µg/mL units.

*Q* Name the recorded log10 of IC50 for CC(NC(=S)Nc1ccc(NC(=O)c2nccc3ccccc23)cc1)c1ccc(C#N)cc1 (centres unmarked) .
*A* -0.89

*Q* Name the recorded log10 of IC50 for O=C(Nc1ccc(NC(=S)Nc2cc(Br)cc(C(F)(F)F)c2)cc1)c1ccccc1F .
*A* 0.78

*Q* Name the recorded log10 of IC50 for C[C@H](NC(=S)Nc1ccc(NC(=O)c2ccc(F)cc2)cc1)c1ccc(Br)cc1 .
*A* -0.33

*Q* Name the recorded log10 of IC50 for CN1CCN(c2cc(NC(=S)Nc3ccc(NC(=O)c4ccccc4F)cc3)cc(C(F)(F)F)c2)CC1 .
*A* 0.48

*Q* Name the recorded log10 of IC50 for CC(NC(=S)Nc1ccc(NC(=O)c2nccc3ccccc23)cc1)c1cc2ccccc2o1 (centres unmarked) .
*A* -1.30

*Q* Name the recorded log10 of IC50 for COc1ccccc1C(=O)Nc1ccc(NC(=S)NC(C)c2ccc(C#N)cc2)cc1 (centres unmarked) .
*A* -0.52

*Q* Name the recorded log10 of IC50 for O=C(Nc1ccc(NC(=S)NCCCc2ccccc2)cc1)c1ccccc1F .
*A* 1.00

* * *

- Test system: HCMV recombinant mutant virus whose genome contains the prokaryotic beta-glucuronidase gene
- assay_explanation: microbe, parasite or virus in culture
- Type: cell-based, human cytomegalovirus
- stated_conditions: Human betaherpesvirus 5, Fibroblast, read-out: IC50 ug/ml HCMV, HCMV, human foreskin fibroblasts
parameter_measured: IC50 (µg/mL)
Please state the figure in µg/mL; there is no need to write the unit.

{"columns": ["compound", "readout_value"],
 "data": [
  ["Cc1ccc(NC(=S)Nc2ccc(NC(=O)c3ccccc3F)c(C)c2)cc1Cl", 3],
  ["O=C(Nc1ccc(NC(=S)Nc2cc(Cl)ccc2O)cc1)c1ccccc1F", 2.6],
  ["CC(O)c1ccc(NC(=S)Nc2ccc(NC(=O)c3ccccc3F)cc2)cc1Cl (centres unmarked)", 0.3],
  ["O=C(Nc1ccc(NC(=S)Nc2ccc(I)c(Cl)c2)cc1)c1ccccc1F", 3],
  ["CN(C)c1ccc(Cl)cc1NC(=S)Nc1ccc(NC(=O)c2ccccc2F)cc1", 2.5]
]}

*Q* Name the recorded IC50 for COc1ccc(C(=O)Nc2ccc(NC(=S)Nc3cc(Cl)c(OC)c(Cl)c3)cc2)cc1 .
*A* 10

*Q* Name the recorded IC50 for COc1cc(OC)c(NC(=S)Nc2ccc(NC(=O)c3ccccc3O)cc2)cc1Cl .
*A* 6

*Q* Name the recorded IC50 for COc1cc(OC)c(NC(=S)Nc2ccc(NC(=O)c3cccc(OC(C)=O)c3)cc2)cc1Cl .
*A* 8

*Q* Name the recorded IC50 for CC(NC(=S)Nc1ccc(NC(=O)c2cccc(Cl)c2)cc1)c1ccc(F)cc1 (centres unmarked) .
*A* 1.5

*Q* Name the recorded IC50 for CCCOc1ccc(NC(=S)Nc2ccc(NC(=O)c3ccccc3F)cc2)cc1Cl .
*A* 10

* * *

- Test system: VZV strain Ellen
- assay_explanation: VZV antiviral (ELISA) assay
- Assay type: cell-based
- stated_conditions: Human alphaherpesvirus 3, read-out: % inhibition 10 ug/ml VZV; 10 ug/ml; VZV strain Ellen, HFF cells, ELISA
Class t: inhibition at 10 µg/mL at least 20%. Class f: inhibition at 10 µg/mL below 20%.

*Q* Reported inhibition at 10 µg/mL reaches at least 20% for O=C(Nc1ccc(NC(=S)Nc2cccc([N+](=O)[O-])c2)cc1)c1ccccc1F ?
*A* t

*Q* Reported inhibition at 10 µg/mL reaches at least 20% for CN1CCC(N(C)c2ccc(NC(=S)Nc3ccc(NC(=O)c4ccccc4F)cc3)cc2Cl)CC1 ?
*A* t

*Q* Reported inhibition at 10 µg/mL reaches at least 20% for CC(=O)Nc1cccc(NC(=S)Nc2ccc(NC(=O)c3ccccc3F)cc2)c1 ?
*A* f

*Q* Reported inhibition at 10 µg/mL reaches at least 20% for Nc1c(Br)cc(NC(=S)Nc2ccc(NC(=O)c3ccccc3F)cc2)cc1Br ?
*A* f

*Q* Reported inhibition at 10 µg/mL reaches at least 20% for O=C(Nc1ccc(NC(=S)Nc2cccc(CO)c2)cc1)c1ccccc1F ?
*A* t

*Q* Reported inhibition at 10 µg/mL reaches at least 20% for CC(O)c1cccc(NC(=S)Nc2ccc(NC(=O)c3ccccc3F)cc2)c1 (centres unmarked) ?
*A* f

*Q* Reported inhibition at 10 µg/mL reaches at least 20% for O=C(Nc1ccc(NC(=S)Nc2cccc(O)c2)cc1)c1ccccc1F ?
*A* t

* * *

- Tested on: HCMV recombinant mutant virus whose genome contains the prokaryotic beta-glucuronidase gene
- assay_explanation: microbe, parasite or virus in culture
- Format: cell-based, human cytomegalovirus
- stated_conditions: Human betaherpesvirus 5, Fibroblast, read-out: IC50 ug/ml HCMV, HCMV, human foreskin fibroblasts
- Procedure: Microtiter plate assay. […] At 96 hours post-infection, the infected cell lysates are prepared (using 50mM sodium phosphate [pH7.0] containing 0.1% Triton X-100 and 0.1% sarkosyl) and assayed for beta-glucuronidase activity using a substrate for the enzyme which when cleaved yields either a product which can be measured colorimetrically in a spectrophotometer or fluorescently in a microfluorimeter. […]
parameter_measured: IC50

Worked cases, answers included:
{"columns": ["compound", "parameter_measured", "readout_value"],
 "data": [
  ["COc1ccc(NC(=S)Nc2ccc(NC(=O)c3ccccc3OC)cc2)cc1Cl", "IC50", "4 µg/mL"],
  ["CC(NC(=S)Nc1ccc(NC(=O)c2cc3ccccc3cn2)cc1)c1ccc(C#N)cc1 (centres unmarked)", "IC50", "5.2 µg/mL"],
  ["COc1cc(OC)c(NC(=S)Nc2ccc(NC(=O)c3ccccc3N)cc2)cc1Cl", "IC50", "> 10 µg/mL"],
  ["Nc1ccc(Cl)cc1NC(=S)Nc1ccc(NC(=O)c2ccccc2F)cc1", "IC50", "> 10 µg/mL"],
  ["CC(NC(=S)Nc1ccc(NC(=O)c2cc3ccccc3o2)cc1)c1cc2ccccc2o1 (centres unmarked)", "IC50", "> 10 µg/mL"],
  ["CN(C)c1ccc(CNC(=S)Nc2ccc(NC(=O)c3ccccc3F)cc2)cc1C(F)(F)F", "IC50", "> 0.5 µg/mL"],
  ["O=C(CN1CCCCCC1)Nc1ccc(NC(=S)Nc2ccc(NC(=O)c3ccccc3F)cc2)cc1Cl", "IC50", "1 µg/mL"]
]}

Then this compound:
*Q* Name the recorded IC50 for CC(NC(=S)Nc1ccc(NC(=O)c2ccc(Cl)cc2)cc1)c1ccc(F)cc1 (centres unmarked) .
*A* > 10 µg/mL

* * *

Measured IC50, listed per entry.
- Tested on: VZV strain Ellen
- assay_explanation: VZV antiviral (ELISA) assay
- Assay type: cell-based
- stated_conditions: Human alphaherpesvirus 3, HFF, read-out: IC50 (ug/ml) VZV, VZV strain Ellen, HFF cells, ELISA
Please state the figure in µg/mL; there is no need to write the unit.

Worked cases, answers included:
{"columns": ["molecule", "parameter_measured", "value_units", "readout_value"],
 "data": [
  ["CC(NC(=S)Nc1ccc(NC(=O)c2ccccc2F)cc1)c1cc2ccccc2o1 (stereo not shown)", "IC50", "µg/mL", 0.08],
  ["CC(NC(=S)Nc1ccc(NC(=O)c2nccc3ccccc23)cc1)c1ccc(Br)cc1 (stereo not shown)", "IC50", "µg/mL", 0.04]
]}

*Q* Name the recorded IC50 for COc1ccc(C(C)NC(=S)Nc2ccc(NC(=O)c3ccccc3F)cc2)cc1Cl (stereo not shown) .
*A* 6
